- measurementTarget: SFRP-1 (Homo sapiens, UniProt Q8N474)
- Sequence (Q8N474 32-314): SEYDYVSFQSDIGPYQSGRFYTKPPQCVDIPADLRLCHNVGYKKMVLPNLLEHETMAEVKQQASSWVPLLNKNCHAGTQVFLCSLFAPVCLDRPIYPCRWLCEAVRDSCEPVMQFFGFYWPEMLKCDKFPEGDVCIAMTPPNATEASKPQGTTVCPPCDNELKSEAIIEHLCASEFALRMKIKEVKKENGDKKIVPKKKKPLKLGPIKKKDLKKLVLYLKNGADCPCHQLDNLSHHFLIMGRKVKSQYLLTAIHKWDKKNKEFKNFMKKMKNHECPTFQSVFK
- protocol: Cell-based assay for in vitro measurement of SFRP-1/SARP2 antagonist activity (U2OS cells co-transfected with 16x TCF-tk-Luciferase reporter, Wnt and hSFRP-1)
Assign log10 EC50 to each entry below.
Remember, log10 of EC50, in nM.

Can you look up the measured log10 EC50 of CC(C)(C)OC(=O)N1CCC(NS(=O)(=O)c2cc(S(=O)(=O)c3ccccc3)ccc2C(F)(F)F)CC1 for me? 2.42

Can you look up the measured log10 EC50 of CN(CCCNS(=O)(=O)c1cc(S(=O)(=O)c2ccccc2)ccc1C(F)(F)F)C(=O)CCC(=O)O for me? 3.50

Can you look up the measured log10 EC50 of CCCCOC(=O)N(C)CCNS(=O)(=O)c1cc(S(=O)(=O)c2ccccc2)ccc1C(F)(F)F for me? 3.33

Can you look up the measured log10 EC50 of O=S(=O)(NC1CCOCC1)c1cc(S(=O)(=O)c2cccc(Cl)c2)ccc1C(F)(F)F for me? 3.30

Can you look up the measured log10 EC50 of C[S+]([O-])c1ccc(C(=O)N2CCC(NS(=O)(=O)c3cc(S(=O)(=O)c4ccccc4)ccc3C(F)(F)F)CC2)cc1 (stereo not shown) for me? 2.19

Can you look up the measured log10 EC50 of CN(CCNS(=O)(=O)c1cc(S(=O)(=O)c2ccccc2)ccc1C(F)(F)F)C(=O)c1ccccc1 for me? 3.20

Can you look up the measured log10 EC50 of COP(=O)(Cc1ccc(C(=O)N(C)CCNS(=O)(=O)c2cc(S(=O)(=O)c3ccccc3)ccc2C(F)(F)F)cc1)OC for me? 3.91

----------
- measurementTarget: SFRP-1 (Homo sapiens)
- Sequence (Q8N474 32-314): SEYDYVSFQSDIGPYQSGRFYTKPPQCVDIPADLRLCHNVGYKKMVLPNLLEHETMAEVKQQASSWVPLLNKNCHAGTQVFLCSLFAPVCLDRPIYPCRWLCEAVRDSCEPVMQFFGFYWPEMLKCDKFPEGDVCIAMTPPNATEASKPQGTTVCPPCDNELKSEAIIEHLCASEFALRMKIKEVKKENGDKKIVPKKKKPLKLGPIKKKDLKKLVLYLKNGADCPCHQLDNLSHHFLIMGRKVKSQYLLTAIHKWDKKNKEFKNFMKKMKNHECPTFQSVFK
- protocol: Cell-based assay for in vitro measurement of SFRP-1/SARP2 antagonist activity (U2OS cells co-transfected with 16x TCF-tk-Luciferase reporter, Wnt and hSFRP-1)
So basically, if EC50 comes in under 700 nM it's condition met, and if it's 700 nM or more it's condition not met.

Decide: EC50 of CC(C)(C)c1ccc(C(=O)N2CCC(NS(=O)(=O)c3cc(S(=O)(=O)c4cccc(O)c4)ccc3C(F)(F)F)CC2)cc1 strictly below 700 nM? condition met

Decide: EC50 of O=C(c1cscn1)N1CCC(NS(=O)(=O)c2cc(S(=O)(=O)c3ccccc3)ccc2C(F)(F)F)CC1 strictly below 700 nM? condition met

Decide: EC50 of O=C(c1ccc(F)c(F)c1)N1CCC(NS(=O)(=O)c2cc(S(=O)(=O)c3ccccc3)ccc2C(F)(F)F)CC1 strictly below 700 nM? condition not met

Decide: EC50 of O=S(=O)(NCCc1ccc(-c2nn[nH]n2)cc1)c1cc(S(=O)(=O)c2ccccc2)ccc1C(F)(F)F strictly below 700 nM? condition met

Decide: EC50 of COC(=O)CN(C)CCNS(=O)(=O)c1cc(S(=O)(=O)c2ccccc2)ccc1C(F)(F)F strictly below 700 nM? condition not met

Decide: EC50 of N#Cc1ccc(CCNS(=O)(=O)c2cc(S(=O)(=O)c3ccccc3)ccc2C(F)(F)F)cc1 strictly below 700 nM? condition met

----------
- measurementTarget: SFRP-1 (Homo sapiens)
- protocol: Cell-based assay for in vitro measurement of SFRP-1/SARP2 antagonist activity (U2OS cells co-transfected with 16x TCF-tk-Luciferase reporter, Wnt and hSFRP-1)
- settings: U2OS, read-out: Fold Induction without SFRP-1, Conc 15 μM; single dose; luciferase reporter; cells without SFRP-1 (specificity control)
Assign fold induction at 15 µM to each entry below.
Hey, just send me the number, nothing else.

Can you look up the measured fold induction at 15 µM of CC(C)(C)OC(=O)N1CCC(NS(=O)(=O)c2cc(S(=O)(=O)c3ccccc3)ccc2Cl)CC1 for me? 1.1

Can you look up the measured fold induction at 15 µM of CNc1ccc(S(=O)(=O)c2ccc(C(C)C)c(S(=O)(=O)NCCc3ccccn3)c2)c(C)c1 for me? 1.4

Can you look up the measured fold induction at 15 µM of CC(C)c1ccc(S(=O)(=O)c2ccc(F)cc2)cc1S(=O)(=O)NCCc1ccncc1 for me? 1.1

Can you look up the measured fold induction at 15 µM of CCCc1ccc(S(=O)(=O)c2ccccc2)cc1S(=O)(=O)NCC1CCOCC1 for me? 1.2

Can you look up the measured fold induction at 15 µM of COc1ccccc1OC(=O)N1CCC(NS(=O)(=O)c2cc(S(=O)(=O)c3ccccc3)ccc2C)CC1 for me? 1.1

Can you look up the measured fold induction at 15 µM of CC(C)c1ccc(S(=O)(=O)c2cccc(C#N)c2)cc1S(=O)(=O)NCCc1ccccn1 for me? 1.2

Can you look up the measured fold induction at 15 µM of CCCc1ccc(S(=O)(=O)c2ccc(F)cc2)cc1S(=O)(=O)NCCc1ccccc1 for me? 1

Can you look up the measured fold induction at 15 µM of Cc1cccc(S(=O)(=O)c2ccc(Cl)c(S(=O)(=O)NC3CCOCC3)c2)c1 for me? 1.1

Can you look up the measured fold induction at 15 µM of CC(C)c1cc(C(C)C)c(S(=O)(=O)c2ccc(F)cc2)cc1S(=O)(=O)NCCc1ccccc1 for me? 1.1

Can you look up the measured fold induction at 15 µM of CC(C)c1ccc(S(=O)(=O)c2ccc(N3CCN(C)CC3)cc2)cc1S(=O)(=O)NCC1CCOCC1 for me? 1.2

Can you look up the measured fold induction at 15 µM of CC(=O)N1CCC(NS(=O)(=O)c2cc(S(=O)(=O)c3ccc(F)cc3)ccc2C)CC1 for me? 1.1

Can you look up the measured fold induction at 15 µM of CC(C)c1ccc(S(=O)(=O)c2ccc(F)cc2)cc1S(=O)(=O)NC1CCN(C(=S)Nc2ccc3c(c2)C(=O)OC32c3ccc(O)cc3Oc3cc(O)ccc32)CC1 for me? 1.1

Can you look up the measured fold induction at 15 µM of CCNC(=O)N1CCC(NS(=O)(=O)c2cc(S(=O)(=O)c3ccccc3)ccc2C)CC1 for me? 0.9

Can you look up the measured fold induction at 15 µM of CNc1ccc(S(=O)(=O)c2ccc(C(C)C)c(S(=O)(=O)NCCc3ccccn3)c2)cc1Cl for me? 1.1

Can you look up the measured fold induction at 15 µM of Cc1ccc(S(=O)(=O)c2ccc(F)cc2)cc1S(=O)(=O)NC1CCN(C(=O)c2ccc(C#N)cc2)CC1 for me? 1.1

----------
- measurementTarget: UniProt:Q8N474
- protocol: Cell-based assay for in vitro measurement of SFRP-1/SARP2 antagonist activity (U2OS cells co-transfected with 16x TCF-tk-Luciferase reporter, Wnt and hSFRP-1);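 note: U2OS cells co-transfected with a TCF-tk luciferase reporter, a Wnt vector, hSFRP-1 or empty vector and CMV-βgal, luciferase luminescence read in cell lysates alongside βgal activity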
- settings: U2OS, read-out: Fold Induction with SFRP-1, U2OS cells, single dose 10 μM, luciferase reporter, fold induction over SFRP-1 control
// map fold induction at 10 µM to label using Low = under 3, Medium = from 3 up to 4, High = 4 and over

Bin this entry: CC(C)c1ccc(S(=O)(=O)c2ccccc2)cc1S(=O)(=O)NC1CCCC(C(=O)O)C1 (centres unmarked) [Example 952] Low

Bin this entry: COC(=O)c1cccc(S(=O)(=O)N2CCC(NS(=O)(=O)c3cc(S(=O)(=O)c4ccccc4)ccc3C(F)(F)F)CC2)c1 [Example 938] High

Bin this entry: COC(=O)C1CCCC(NS(=O)(=O)c2cc(S(=O)(=O)c3ccccc3)ccc2C(F)(F)F)C1 (centres unmarked) [Example 945] Low

Bin this entry: O=C(c1cc(Cl)nc(Cl)c1)N1CCC(NS(=O)(=O)c2cc(S(=O)(=O)c3ccccc3)ccc2C(F)(F)F)CC1 [Example 857] High

Bin this entry: O=C(O)C1CCC(NS(=O)(=O)c2cc(S(=O)(=O)c3ccccc3)ccc2C(F)(F)F)CC1 (centres unmarked) [Example 968] Low

Bin this entry: CN(CCNS(=O)(=O)c1cc(S(=O)(=O)c2ccccc2)ccc1C(F)(F)F)C(=O)N[C@H]1CCN(C(=O)OC(C)(C)C)C1 [Example 926] Medium

Bin this entry: CN(CCNS(=O)(=O)c1cc(S(=O)(=O)c2ccccc2)ccc1C(F)(F)F)C(=O)C1CCCCC1 [Example 846] Medium

Bin this entry: COc1ccc(NC(=O)N(C)CCNS(=O)(=O)c2cc(S(=O)(=O)c3ccccc3)ccc2C(F)(F)F)c(OC)c1 [Example 828] Low

Bin this entry: O=S(=O)(NCc1ccc(Br)cc1)c1cc(S(=O)(=O)c2ccccc2)ccc1C(F)(F)F [Example 964] Low

Bin this entry: O=S(=O)(NCCc1ccc[n+]([O-])c1)c1cc(S(=O)(=O)c2ccccc2)ccc1C(F)(F)F [Example 723] High

Bin this entry: O=C(c1ccc(C(F)(F)F)cc1F)N1CCC(NS(=O)(=O)c2cc(S(=O)(=O)c3ccccc3)ccc2C(F)(F)F)CC1 [Example 710] Medium

Bin this entry: O=S(=O)(NCC1CCOCC1)c1cc(S(=O)(=O)c2ccccc2)ccc1C(F)(F)F [Example 765] Medium
